// provenance: PubChem BioAssay (NCATS)

- Protocol Description: Quantitative High-Throughput drug screen in 47 multiple myeloma cell lines against the NCATS MIPE library collection: H1112_PLB cell viability assay (AID 1918967; also: nearly all actives have a fitted effect of over 30% in size; also: potency is read from the fitted curve at half-maximal effect)
- Applied Conditions: H1112 myeloma cells viability, ATP luminescence, 48 h; series mostly up to 45.8 µM
- From the text: PI: Beverly A. Mock Ph.D. Laboratory of Cancer Biology and Genetics, Center for Cancer Research, National Cancer Institute, National Institute of Health, Bethesda, Maryland […] 5; Detector; 425V; Luminescence; Viewlux PerkinElmer. […] 1. […] Briefly, the corresponding myeloma cell lines were screened in 1,536-well plates with 500 cells, 5-uL per well for inhibition of cell viability (assessed by measuring ATP levels with CellTiterGlo). […]
Results filed as inconclusive are left out. Active and inactive are the calls of the source. Calls follow the shape of the dose curve; as a rule, active = well fitted cell-killing curve with a large enough effect; inconclusive = small, poorly fitted or top-dose-only effect, or effect the other way; inactive = no such curve, though single readings can be large or run the other way.
Experimental Endpoint: Potency

INSERT INTO results (molecule, experimental_endpoint, result) VALUES
  ('COc1cc(C(C)C)c(Oc2cnc(NC(CO)CO)nc2N)cc1I', 'Potency', 'inactive'),
  ('C#C[C@]1(O)CC[C@@H]2[C@@H]3CCc4cc(O)ccc4[C@H]3CC[C@@]21C', 'Potency', '18.7 µM (active)'),
  ('Nc1nc(=O)n([C@H]2C[C@H](O)[C@@H](CO)O2)cc1F', 'Potency', 'inactive'),
  ('O=C(Nc1cc2cc[nH]c2cn1)c1ccccc1', 'Potency', '9.35 µM (active)'),
  ('C=CCNC1=C2C[C@@H](C)C[C@H](OC)[C@@H](O)[C@@H](C)C=C(C)[C@H](OC(N)=O)[C@@H](OC)C=CC=C(C)C(=O)NC(=CC1=O)C2=O', 'Potency', '14.8 µM (active)'),
  ('C[C@H](NC(=O)[C@@H](O)c1cc(F)cc(F)c1)C(=O)N[C@@H]1C(=O)N(C)c2ccccc2-c2ccccc21', 'Potency', '14.8 µM (active)'),
  ('CN1CCCN(C(=O)c2cccc(-c3ccc(C=C4C(=O)Nc5ccc(Cl)cc54)o3)c2)CC1', 'Potency', '26.4 µM (active)'),
  ('O=C(O)C[C@H](O)C[C@H](O)C=Cc1c(C2CC2)nc2ccccc2c1-c1ccc(F)cc1', 'Potency', '13.2 µM (active)'),
  ('COc1ccnc2[nH]cc(C(=O)C(=O)N3CCN(C(=O)c4ccccc4)C[C@@H]3C)c12', 'Potency', 'inactive'),
  ('O=S(=O)(O)CCSSCCS(=O)(=O)O', 'Potency', 'inactive'),
  ('CN(C)CCN1C(=O)c2cccc3cc(N)cc(c23)C1=O', 'Potency', '18.7 µM (active)'),
  ('C[C@@H](Oc1ccc2[nH]nc(C=Cc3cnn(CCO)c3)c2c1)c1c(Cl)cncc1Cl', 'Potency', '6.62 µM (active)'),
  ('O=c1c(O)c(-c2ccc(O)c(O)c2)oc2cc(O)ccc12', 'Potency', '26.4 µM (active)'),
  ('O=C(O)C=Cc1ccc(Cn2ccnc2)cc1', 'Potency', 'inactive'),
  ('O=C(NCc1ccccc1)[C@H](Cc1ccccc1)NC(=O)[C@@H]1O[C@@H]1C(=O)NCCc1ccc(O)cc1', 'Potency', 'inactive'),
  ('Cn1cc(CNCC2CCN(c3ncc(C(=O)NO)cn3)CC2)c2ccccc21', 'Potency', '0.0332 µM (active)'),
  ('CC[C@H]1OC(=O)[C@H](C)[C@@H](O[C@H]2C[C@@](C)(OC)[C@@H](O)[C@H](C)O2)[C@H](C)[C@@H](O[C@@H]2O[C@@H](C)C[C@H](N(C)C)[C@@H]2O)[C@](C)(O)C[C@@H](C)C(=O)[C@H](C)[C@@H](O)[C@]1(C)O', 'Potency', 'inactive'),
  ('CN(N=O)C(=O)N[C@H]1C(O)OC(CO)[C@@H](O)[C@H]1O (stereo not given in full)', 'Potency', 'inactive'),
  ('C[C@]12CC[C@@H]3c4ccc(O)cc4CC[C@H]3[C@H]1CC[C@H]2O', 'Potency', '8.33 µM (active)'),
  ('NC(=O)c1ncn([C@@H]2O[C@H](CO)[C@@H](O)[C@@H]2O)c1O', 'Potency', 'inactive'),
  ('C[C@]12C=CC(=O)N[C@@H]1CC[C@H]1[C@H]3CC[C@@H](C(=O)Nc4cc(C(F)(F)F)ccc4C(F)(F)F)[C@@]3(C)CC[C@@H]12', 'Potency', '13.2 µM (active)'),
  ('C[N+]1(C)[C@@H]2C[C@@H](OC(=O)C(O)(c3cccs3)c3cccs3)C[C@H]1[C@@H]1O[C@@H]12', 'Potency', 'inactive'),
  ('Nc1ncn([C@@H]2O[C@H](CO)[C@@H](O)[C@@H]2O)c(=O)n1', 'Potency', '18.7 µM (active)'),
  ('COc1cc([C@@H]2c3cc4c(cc3[C@@H](O[C@@H]3O[C@@H]5CO[C@@H](c6cccs6)O[C@@H]5[C@H](O)[C@@H]3O)[C@H]3COC(=O)[C@H]23)OCO4)cc(OC)c1O', 'Potency', '0.59 µM (active)'),
  ('C[C@H]1C[C@H]2[C@@H]3CCC4=CC(=O)C=C[C@]4(C)[C@@H]3C(=O)C[C@]2(C)[C@@]1(O)C(=O)CO', 'Potency', 'inactive'),
  ('CCNC(=O)Nc1ccc(-c2nc3c(c(N4CCOC[C@H]4C)n2)CCN(C2COC2)C3)cc1', 'Potency', '0.59 µM (active)'),
  ('CCc1nc(-c2cccc(C)c2)c(-c2ccnc(NC(=O)c3ccccc3)c2)s1', 'Potency', '14.8 µM (active)'),
  ('N[C@H]1CN(c2c(F)cc3c(=O)c(C(=O)O)cn(C4C[C@@H]4F)c3c2Cl)CC12CC2 (stereo not given in full)', 'Potency', 'inactive'),
  ('COC(=O)[C@@H]1[C@H]2C[C@@H]3c4[nH]c5ccccc5c4CCN3C[C@@H]2CC[C@@H]1O', 'Potency', 'inactive'),
  ('CCOC(=O)N1CCN([N+]([O-])=NOc2ccc([N+](=O)[O-])cc2[N+](=O)[O-])CC1', 'Potency', '1.18 µM (active)'),
  ('CCn1c(=O)c2c(nc(C=Cc3ccc(OC)c(OC)c3)n2C)n(CC)c1=O', 'Potency', 'inactive'),
  ('Cn1c(Nc2ccc(C(F)(F)F)cc2)nc2cc(Oc3ccnc(-c4ncc(C(F)(F)F)[nH]4)c3)ccc21', 'Potency', '8.33 µM (active)'),
  ('C[C@H](O)[C@@H]1C(=O)N2C(C(=O)O)=C(S[C@@H]3CN[C@H](CNS(N)(=O)=O)C3)[C@@H](C)[C@@H]12', 'Potency', 'inactive'),
  ('CN1[C@H]2CC(OC(=O)[C@@H](CO)c3ccccc3)C[C@H]1[C@H]1O[C@H]12 (stereo not given in full)', 'Potency', 'inactive'),
  ('CC(Oc1ccc(O)cc1)(P(=O)(O)O)P(=O)(O)O', 'Potency', 'inactive');
